Recorded values, source patent US11071730B2.

We begin with a simple list: items and their reported IC50.
# SYSTEM: human HPK1 (MAP4K1) (Homo sapiens (Human), UniProt Q92918)
# Sequence (Q92918 17-274): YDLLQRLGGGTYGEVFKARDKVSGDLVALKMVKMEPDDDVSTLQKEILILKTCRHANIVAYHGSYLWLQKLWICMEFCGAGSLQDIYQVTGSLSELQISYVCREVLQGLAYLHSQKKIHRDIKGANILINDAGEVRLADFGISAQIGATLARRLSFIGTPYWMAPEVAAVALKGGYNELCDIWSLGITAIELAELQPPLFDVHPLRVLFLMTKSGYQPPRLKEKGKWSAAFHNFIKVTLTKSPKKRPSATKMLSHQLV
# ASSAY EXPLANATION: HPK1 IC50 Assay (TR-FRET biochemical kinase assay, STK S1 peptide substrate)
# SETTINGS: recombinant human HPK1 kinase domain 0.15 nM, 10 μM ATP, 1 μM STK S1 peptide; geometric mean of multiple experiments

CPD SMILES: CC(C)n1cnc2cc(-c3cnc4c(c3)N([C@H]3C[C@@H](N5CCCCC5)C3)C(=O)C4(C)C)nc(Nc3ccncc3F)c21
IC50 [nM]: 13.2
//
CPD SMILES: CC(=O)N1CCC2(CC1)C(=O)N([C@H]1C[C@@H](N3C[C@@H](C)[C@@H](C)C3)C1)c1cc(-c3cc4ncn(C(C)C)c4c(Nc4ccncc4F)n3)ccc12
IC50 [nM]: 0.3
//
CPD SMILES: CC(C)n1cnc2cc(-c3ccc4c(c3)N([C@H]3C[C@@H](N5CCCCC5)C3)C(=O)C43CCN(C(=O)[C@@H](C)O)CC3)nc(Nc3ccc(F)nc3F)c21
IC50 [nM]: 0.1
//
CPD SMILES: CC[C@H](C)n1cnc2cc(-c3ccc4c(c3)N([C@H]3C[C@@H](N5CCC(C)(C)C5)C3)C(=O)C43CCN(C4COC4)CC3)nc(Nc3ccncc3F)c21
IC50 [nM]: 0.3
//
CPD SMILES: CC(C)n1cnc2cc(-c3ccc4c(c3)N([C@H]3C[C@@H](N5CCC(C)(C)C5)C3)C(=O)C43CCN(C4COC4)CC3)nc(Nc3ccnc(F)c3F)c21
IC50 [nM]: 0.2
//
CPD SMILES: CC(C)n1cnc2cc(-c3ccc4c(c3)N([C@H]3C[C@@H](N5CC[C@@H](C)C5)C3)C(=O)C43CCN(C4COC4)CC3)nc(Nc3ccncc3F)c21
IC50 [nM]: 1.1
//
CPD SMILES: CC(C)n1cnc2cc(-c3ccc4c(c3)N([C@H]3C[C@@H](N5CCC[C@@H](F)C5)C3)C(=O)C43CCN(C4COC4)CC3)nc(Nc3ccncc3F)c21
IC50 [nM]: 0.4
